Target of assay: human STING (hSTING) (Homo sapiens, UniProt Q86WV6)
Sequence (Q86WV6 whole entry H232R): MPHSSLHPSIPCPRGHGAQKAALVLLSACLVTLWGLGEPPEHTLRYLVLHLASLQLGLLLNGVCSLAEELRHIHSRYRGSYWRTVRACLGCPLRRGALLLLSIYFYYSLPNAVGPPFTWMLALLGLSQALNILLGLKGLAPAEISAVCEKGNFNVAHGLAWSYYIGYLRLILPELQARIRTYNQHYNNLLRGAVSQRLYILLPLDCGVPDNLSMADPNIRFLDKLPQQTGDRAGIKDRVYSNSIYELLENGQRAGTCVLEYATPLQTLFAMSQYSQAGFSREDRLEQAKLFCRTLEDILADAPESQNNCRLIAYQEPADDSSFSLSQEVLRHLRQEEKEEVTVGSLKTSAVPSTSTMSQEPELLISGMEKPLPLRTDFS
Procedure details: Inhibition test of intracellular human STING (hSTING) pathway using SEAP reporter cells (HEK-Blue ISG), stimulation with Compound 3
Conditions: Compound 3 10 nM stimulation, 21 hours, read-out: hSTING inhibitory activity
pIC50: −log10 of the molar value.
Observable: pIC50

Give the reported pIC50 for COCCn1c(Nc2c[nH]c3ccc(Cl)nc23)nc2ccc(F)c(F)c21 (system: human STING (hSTING) (Homo sapiens, UniProt Q86WV6)). ≤ 5.00

Give the reported pIC50 for Clc1ccc2[nH]cc(Nc3nc4c(-c5ccncc5)cccc4[nH]3)c2n1 (system: human STING (hSTING) (Homo sapiens, UniProt Q86WV6)). ≤ 5.00
